Tested on: HepG2 cells
Assay: Measurement of cholesterol synthesis inhibitory ability
Format: cell-based
Settings: 100 μM compound, 24 hours, HepG2 cells; content of cholesterol formed; lower value = stronger inhibition
Procedure: 2 mM metformin was used as a comparative compound for each of the plates (control group). A cholesterol synthesis inhibitory ability, which is an important function of AMPK (AMP-activated protein kinase), was measured using HepG2 cells (ATCC: American Type Culture Collection) as a hepatic cell model according to the following procedure. […]
Where a name gives a salt, the structure may show the parent alone.
parameter.measured: Cholesterol (100 μM) aver.
The answer should be written as a number, with no unit following it.

Q: Recorded Cholesterol (100 μM) aver. of Cc1ccc(CN=C(NCc2ccc3c(c2)OCO3)NC(=N)N)cc1.Cl , please.
Ans: 32.34

Q: Give the measured Cholesterol (100 μM) aver. of Cl.N=C(N)NC(=NC1CCCCCC1)NCc1ccc2c(c1)OCO2 .
Ans: 31.37

Q: Item CC(C)N=C(NCc1ccc2c(c1)OCO2)NC(=N)N.Cl has what recorded Cholesterol (100 μM) aver.?
Ans: 63.99

Q: May I ask what Cholesterol (100 μM) aver. has been recorded for CN=C(NCc1ccc2c(c1)OCO2)NC(=N)N.Cl ?
Ans: 55.85

Q: Would you kindly share the measured Cholesterol (100 μM) aver. for N=C(N)NC(=Nc1cccc2ccccc12)NCc1ccc2c(c1)OCO2 [Example 3, hydrochloride] ?
Ans: 8.11

Q: Record request: Cholesterol (100 μM) aver. value, item Cc1cccc(N=C(NCc2ccc3c(c2)OCO3)NC(=N)N)c1.Cl
Ans: 46.42

Q: What value of measured Cholesterol (100 μM) aver. is listed for CCCN=C(NCc1ccc2c(c1)OCO2)NC(=N)N.Cl ?
Ans: 38.66

Q: Recorded Cholesterol (100 μM) aver. of Cl.N=C(N)NC(=NC1CC1)NCc1ccc2c(c1)OCO2 , please.
Ans: 57.32

Q: Query: Cholesterol (100 μM) aver.; subject: Cl.N=C(N)NC(=NCc1ccc(F)c(F)c1)NCc1ccc2c(c1)OCO2
Ans: 74.32
